# Experimental Protocol: solvent given as SMILES
# Applied Conditions: in CO
Task for the reader: assign each of the following compounds its reported emission maximum.

Example cases with answers are listed next.
CC1=CC(C)=[N+]2C1=C(c1ccc(N3CCCCC3)cc1)c1c(C)cc(C)n1[B-]2(F)F; 514 nm
CN(C)c1ccc2nc(-c3ccc(C(=O)O)cc3)sc2c1; 512 nm
O=C1c2ccccc2-c2c(-c3ccccc3O)[nH]c(=O)n21; 498 nm
CCN(CC)c1ccc(-c2cc3c(s2)c(C(=O)OC)cc(=O)n3C)cc1; 503 nm

In: Given the compound `F[B-]1(F)n2c(-c3ccccc3)cnc2-c2cccc[n+]21` , what is its reported emission maximum?
Out: 503 nm

---

# Experimental Protocol: solvent given as SMILES
# Applied Conditions: in CC#N
Task for the reader: assign each of the following compounds its reported emission maximum.
Answers are plain numbers, in nm.

COc1ccc2c(=O)c3c([nH]c2c1)-c1cc(Cl)ccc1NC3(C)C; 512
Cc1cc(C)c2nc3c(=O)[nH]c(=O)[nH]c3nc2c1; 461
CCC(CC)COC1=CC2=C3c4cc(OCC(CC)CC)c(-c5ccccc5)n4[B-](F)(F)[n+]4c3n(c3cc(C(C)(C)C)ccc34)[B-](F)(F)[N+]2=C1c1ccccc1; 733

Turning now to a further record.
In: Given the compound CCOC(=O)C1CC(c2c(C#N)c(C)nn2-c2ccccc2)=CN1c1ccc(Br)cc1 (centres undefined) , what is its reported emission maximum?
Out: 488

---

# Experimental Protocol: solvent given as SMILES
# Applied Conditions: in CCCCOCCCC
Task for the reader: assign each of the following compounds its reported emission maximum.
Please make sure the unit comes right after the number.

Example cases with answers are listed next.
CC(=O)Nc1cc2ccc3cccc4ccc(c1)c2c34; 389 nm
O=c1c2ccccc2n2c3ccccc3c(=O)c3cc(-c4ccccc4)cc1c32; 454 nm
CN(C)c1ccc2nc3c(cc2c1)c(-c1ccccc1)nn3-c1ccccc1; 498.75 nm
COc1nc(Nc2ccc3c4cccc5cccc(c6cccc2c63)c54)nc(OC)n1; 477 nm
c1ccc(Nc2nc(Nc3ccccc3)nc(Nc3ccc4cc5ccccc5cc4c3)n2)cc1; 441 nm

For each of the items listed, what is its emission maximum?
1. COc1cccc(/C=C/c2ccccc2)c1
2. CC(=O)Nc1ccc2ccc3cccc4ccc1c2c34
3. c1ccc2nc3cccc(-c4ccc(-n5c6ccccc6c6ccccc65)cc4)c3cc2c1

Out:
358 nm
385 nm
442 nm

---

# Experimental Protocol: solvent given as SMILES
# Applied Conditions: in CO
Give yes when the value for emission maximum is at least 400 nm. Give no when it is less.

These solved cases illustrate the format of a correct answer.
CN(C)c1ccc(/C=C2\CCCC2=O)cc1; yes
COc1ccc(-c2cc(B(c3c(C)cc(C)cc3C)c3c(C)cc(C)cc3C)c(-c3sc(-c4ccc(OC)cc4)cc3P(=O)(c3ccccc3)c3ccccc3)s2)cc1; yes
COc1ccc(/C=N/c2cc(C(C)C)c(O)cc2C)cc1; yes
CC(=O)Nc1ccc2ccc3cccc4ccc1c2c34; no
Nc1ccc(C#Cc2ccc3ccc4ccc(C#Cc5ccc(NS(=O)(=O)c6ccc([N+](=O)[O-])cc6[N+](=O)[O-])cc5)c5ccc2c3c45)cc1; yes

In: Tell me whether emission maximum is at least 400 nm here: `CCOC(=O)CCCCCn1c2ccc(F)cc2c(=O)c2cc3c(cc21)c(=O)c1cc(F)ccc1n3CCCCCC(=O)OCC`
Out: yes

In: Okay, and N#Cc1c(-n2nnc3c2CCC2C(CC3)[C@@H]2CO)n([C@H]2C[C@H](O)[C@@H](CO)O2)c2ncnc(N)c12 (some centres undefined) ?
Out: no

In: Okay, and `COc1cc(OC)c2ccc(=O)oc2c1` ?
Out: yes

In: Okay, and `Oc1ccccc1-c1nc(-c2ccccc2)c2ccccn12` ?
Out: yes

In: Okay, and `Cc1cc(C)c(B(c2cc(-c3ccc(C(C)(C)C)cc3)sc2-c2sc(-c3ccc(C(C)(C)C)cc3)cc2P(=O)(c2ccccc2)c2ccccc2)c2c(C)cc(C)cc2C)c(C)c1` ?
Out: yes

In: Okay, and `N#C/C(=C\c1ccc(Cl)cc1)c1nc2ccccc2s1` ?
Out: yes

In: Okay, and `CN(C)c1ccc2c3c(c(=O)oc2c1)C=c1cc2c(cc1O3)=[N+](CCC(=O)O)CCC2` ?
Out: yes

In: Okay, and `COc1ccc2cc([C@H](C)C(=O)O)ccc2c1` ?
Out: no

In: Okay, and `CC1=CC(/C=C/c2ccc(OCCCN=[N+]=[N-])cc2)=[N+]2C1=C(c1ccccc1)c1c(C)cc(C)n1[B-]2(F)F` ?
Out: yes

---

# Experimental Protocol: solvent given as SMILES
# Applied Conditions: in O=P(c1ccccc1)(c1ccccc1)c1ccccc1Oc1ccccc1P(=O)(c1ccccc1)c1ccccc1
Task for the reader: assign each of the following molecules its reported emission maximum.
Numbers only, in nm.

Example cases with answers are listed next.
CC(C)(C)c1ccc2c(c1)c1cc(C(C)(C)C)ccc1n2-c1ccc(-c2nc(-c3ccc(-n4c5ccc(C(C)(C)C)cc5c5cc(C(C)(C)C)ccc54)cc3)nc(-c3ccc(P(=O)(c4ccccc4)c4ccccc4)cc3)n2)cc1; 492
CC(C)(C)c1ccc2c(c1)c1cc(C(C)(C)C)ccc1n2-c1cccc(-c2nc(-c3cccc(P(=O)(c4ccccc4)c4ccccc4)c3)nc(-c3cccc(P(=O)(c4ccccc4)c4ccccc4)c3)n2)c1; 484
O=S(=O)(c1ccc(N(c2ccccc2)c2ccccc2)cc1)c1ccc(N(c2ccccc2)c2ccccc2)cc1; 421

In: Given the molecule `CC(C)(C)c1ccc2c(c1)c1cc(C(C)(C)C)ccc1n2-c1ccc(S(=O)(=O)c2ccc(-n3c4ccc(C(C)(C)C)cc4c4cc(C(C)(C)C)ccc43)cc2)cc1` , what is its reported emission maximum?
Out: 423

---

# Experimental Protocol: solvent given as SMILES
# Applied Conditions: in ClCCl
Endpoint Label: emission maximum (nm)
Answers are plain numbers, in nm.

Example cases with answers are listed next.
CN(C)c1ccc(/C=C/c2ccnc(/C=C/c3ccc(N(C)C)cc3)n2)cc1; 493
CCCCCCc1cc2c3c(c1)c(=C1c4ccccc4Sc4ccccc41)c1cc(CCCCCC)cc4c1N3c1c(cc(CCCCCC)cc1c4=C1c3ccccc3Sc3ccccc31)c2=C1c2ccccc2Sc2ccccc21; 498
c1ccc(C2=C(c3ccccc3)c3cccc4c5c(cc(c34)O2)=NC2CCCCC2N=5)cc1 (stereo unspecified); 545
COc1ccc(N(c2ccc(OC)cc2)c2ccc(-c3ccc(-c4ccc5nc6ccccc6c(=O)n5c4)cc3)cc2)cc1; 557

For each of the items listed, what is its emission maximum?
1. CC1(C)c2ccccc2N(c2ccc3c(c2)S(=O)(=O)c2cc(N4c5ccccc5C(C)(C)c5ccccc54)ccc2C3(C)C)c2ccccc21
2. N#CSC1=CC2=C(c3c(Cl)cccc3Cl)c3cc(SC#N)c(NCc4ccccc4)n3[B-](F)(F)[N+]2=C1NCc1ccccc1

Out:
506
656

---

# Experimental Protocol: solvent given as SMILES
# Applied Conditions: in CS(C)=O
Field 'label' (enum: 1 (yes) / 0 (no)). Set to 1 (yes) when emission maximum is strictly under 500 nm; else 0 (no).

N#Cc1cccc2c(N)c(-c3nn([C@H]4C[C@H](O)[C@@H](CO)O4)c4ncnc(N)c34)ccc12; 0 (no)

In: Take the compound `COc1ccc(/C=N/c2cc(C(C)C)c(O)cc2C)cc1` and say whether its emission maximum is less than 500 nm.
Out: 1 (yes)

In: Okay, and `CN(C)c1ccc(/C=C/c2cc[n+](Cc3cc(C[n+]4ccc(/C=C/c5ccc(N(C)C)cc5)cc4)cc(C[n+]4ccc(/C=C/c5ccc(N(C)C)cc5)cc4)c3)cc2)cc1` ?
Out: 0 (no)

In: Okay, and `c1ccc(N(c2ccccc2)c2ccc(-c3nc(-c4ccc(N(c5ccccc5)c5ccccc5)cc4)c4ccccc4n3)cc2)cc1` ?
Out: 0 (no)

In: Okay, and `O=c1c2cc(S(=O)(=O)O)ccc2[nH]c2ccc(S(=O)(=O)O)cc12` ?
Out: 1 (yes)

In: Okay, and `CN(C)c1ccc(C#Cc2nc(-c3ccccc3)nc3ccccc23)cc1` ?
Out: 0 (no)

In: Okay, and `CCC[n+]1ccc(/C=C/c2ccc(N(C)C)cc2)cc1` ?
Out: 0 (no)

In: Okay, and `CN(C)c1ccc(-c2ncnc3ccccc23)cc1` ?
Out: 0 (no)

In: Okay, and `Cc1cc2c(cc1[N+](=O)[O-])NC(=O)CC(=O)N2` ?
Out: 1 (yes)

In: Okay, and Cc1n[nH]c2c1C(c1ccc([N+](=O)[O-])cc1)C(C#N)=C(N)O2 (centres undefined) ?
Out: 1 (yes)

---

Task for the reader: assign each of the following compounds its reported emission maximum.
# Experimental Protocol: solvent given as SMILES
# Applied Conditions: in CC#N
Numbers only, in nm.

CCCCCCc1ccc2c3c(ccc2c1)O[B-](F)(F)[N+](c1cc([N+]2=Cc4c(ccc5cc(CCCCCC)ccc45)O[B-]2(F)F)cc([N+]2=Cc4c(ccc5cc(CCCCCC)ccc45)O[B-]2(F)F)c1)=C3; 495
Cc1cccc(NC(=O)c2ccc(N(C)C)cc2)c1; 502

For each of the items listed, what is its emission maximum?
1. CN(C)c1ccc(-c2nc(-c3ccccc3)c3ccccn23)cc1
2. Cc1cc(-c2ccc(C(C)(C)C)cc2)cc(C)[o+]1

Out:
1. 509
2. 430
